Entries and their pIC50 values follow.
Molecular target: PAR4 (Homo sapiens)
Sequence (Q96RI0 18-385): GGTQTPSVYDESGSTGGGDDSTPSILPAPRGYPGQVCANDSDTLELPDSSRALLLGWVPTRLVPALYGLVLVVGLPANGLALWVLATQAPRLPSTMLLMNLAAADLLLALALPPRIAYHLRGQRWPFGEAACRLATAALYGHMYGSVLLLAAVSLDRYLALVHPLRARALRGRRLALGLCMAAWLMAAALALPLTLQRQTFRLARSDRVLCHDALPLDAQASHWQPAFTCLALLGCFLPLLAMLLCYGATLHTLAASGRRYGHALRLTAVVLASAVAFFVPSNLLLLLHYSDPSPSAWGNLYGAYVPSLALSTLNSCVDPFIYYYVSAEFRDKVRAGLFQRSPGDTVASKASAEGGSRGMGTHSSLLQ
Experiment: PAR4 FLIPR assay (calcium mobilization, antagonist activity) in PAR4-expressing HEK293 cells
pIC50: −log10 of the molar value.

# molecule, pIC50
records = [
    ("COc1ccc(-c2cc(C#N)cc3nc(OC(F)F)cnc23)cc1 [Example 1]", 5.72),
    ("Cc1cc(-c2cccc(OC(F)(F)F)c2)c2ncc(OC(F)F)nc2c1 [Example 26]", 6.40),
    ("COc1ccc(-c2cc(Cl)cc3nc(OC(F)F)cnc23)cc1 [Example 2]", 5.68),
    ("COc1ccc(-c2cc(Br)cc3nc(OC(F)F)cnc23)cc1 [Example 27]", 5.59),
    ("Cc1cc(-c2cccc(Cl)c2)c2ncc(OC(F)F)nc2c1 [Example 18]", 5.85),
]
